Tested On: BCL2 D111A (Homo sapiens, UniProt P10415, D111A)
Protocol Summary: TR-FRET competitive binding assay, BCL2 D111A
Experimental Parameters: Ki determined from IC50, read-out: TR_FRET EKI_Bcl2 D111A
Endpoint: pKi
Entry type: numeric. Quantity: pKi, the -log10 of concentration in molar units.

stdin: Fill in the recorded pKi for this compound, with BCL2 D111A (Homo sapiens, UniProt P10415, D111A) as test system: Cc1c(N(C(=O)c2cc(-c3cc4c(cc3C(=O)N3Cc5ccccc5C[C@H]3CN3CCCC[C@@H]3C)CN(C(=O)Cc3ccc(OCCN5CCOCC5)cc3F)CC4)n(C)c2C)c2ccc(O)cc2)cc(C#N)n1C [Example 125]
stdout: 9.89

stdin: Fill in the recorded pKi for this compound, with BCL2 D111A (Homo sapiens, UniProt P10415, D111A) as test system: Cc1c(N(C(=O)c2cc(-c3cc4c(cc3C(=O)N3Cc5ccccc5C[C@H]3CN3CCCCC3)CN(C(=O)Cc3ccc(OCCN(C)C5CC5)cc3)CC4)n(C)c2C)c2ccc(O)cc2)cc(C#N)n1C [Example 102]
stdout: 9.62

stdin: Fill in the recorded pKi for this compound, with BCL2 D111A (Homo sapiens, UniProt P10415, D111A) as test system: Cc1c(N(C(=O)c2cc(-c3cc4c(cc3C(=O)N3Cc5ccccc5C[C@H]3CN3CCC[C@@H](C)C3)CN(C(=O)Cc3ccc(OCCN5CCOCC5)cc3F)CC4)n(C)c2C)c2ccc(O)cc2)cc(C#N)n1C [Example 124]
stdout: 9.55

stdin: Fill in the recorded pKi for this compound, with BCL2 D111A (Homo sapiens, UniProt P10415, D111A) as test system: Cc1c(N(C(=O)c2cc(-c3cc4c(cc3C(=O)N3Cc5ccccc5C[C@H]3CN(C)C(C)C)CN(C(=O)Cc3ccc(OCCN5CCOCC5)cc3F)CC4)n(C)c2C)c2ccc(O)cc2)cc(C#N)n1C [Example 91]
stdout: 10.10

stdin: Fill in the recorded pKi for this compound, with BCL2 D111A (Homo sapiens, UniProt P10415, D111A) as test system: Cc1c(N(C(=O)c2cc(-c3cc4c(cc3C(=O)N3Cc5ccccc5C[C@H]3CN3CCCCC3)CN(C(=O)Cc3ccc(O[C@H]5CCN(CCF)C5)cc3F)CC4)n(C)c2C)c2ccc(O)cc2)cc(C#N)n1C [Example 89]
stdout: 9.59
